Known IDH1 R132H IC50 Fold improvement over 87 of a selection of compounds
target: IDH1 R132H (Homo sapiens, UniProt O75874, R132H); test: diaphorase/resazurin-coupled mIDH1 R132H enzyme assay; type: biochemical; conditions: relative to compound 87
Sequence (O75874 whole entry R132H): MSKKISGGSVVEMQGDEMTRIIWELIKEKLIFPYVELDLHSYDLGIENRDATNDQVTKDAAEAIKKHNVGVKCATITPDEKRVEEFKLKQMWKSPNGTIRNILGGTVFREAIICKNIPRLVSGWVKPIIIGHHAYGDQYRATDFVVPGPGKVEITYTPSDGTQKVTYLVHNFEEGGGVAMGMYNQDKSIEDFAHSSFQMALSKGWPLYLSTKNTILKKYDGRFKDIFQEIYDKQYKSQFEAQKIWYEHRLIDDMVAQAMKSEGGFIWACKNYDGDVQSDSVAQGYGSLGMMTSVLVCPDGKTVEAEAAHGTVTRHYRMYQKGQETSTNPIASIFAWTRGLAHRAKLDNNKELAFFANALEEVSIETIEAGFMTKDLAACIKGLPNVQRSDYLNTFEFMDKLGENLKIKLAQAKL
Could you give me the number in fold? Just the number is fine.

Guide cases for IDH1 R132H IC50 Fold improvement over 87, answers given:
{"columns": ["compound", "target.desc", "readout.kind", "numeric.value"],
 "data": [
  ["CCCc1c(C(=O)N2CCNCC2)cc(-c2nc(-c3ccc(Cl)cc3)cs2)c(=O)n1-c1c(CC)cccc1CC [Compound 89]", "IDH1 R132H (Homo sapiens, UniProt O75874, R132H)", "IDH1 R132H IC50 Fold improvement over 87", 2.8],
  ["CCc1cccc(CC)c1-n1c(CC(C)C)c(C(=O)N2CCNCC2)cc(-c2nc(-c3ccc(Cl)cc3)cs2)c1=O [Compound 91]", "IDH1 R132H (Homo sapiens, UniProt O75874, R132H)", "IDH1 R132H IC50 Fold improvement over 87", 1.9],
  ["CCc1cccc(CC)c1-n1c(CC2CC2)c(C(=O)N2CCNCC2)cc(-c2nc(-c3ccc(Cl)cc3)cs2)c1=O [Compound 93]", "IDH1 R132H (Homo sapiens, UniProt O75874, R132H)", "IDH1 R132H IC50 Fold improvement over 87", 3.8],
  ["CCc1cccc(CC)c1-n1c(CC2CCNC2)c(C(=O)N2CCNCC2)cc(-c2nc(-c3ccc(Cl)cc3)cs2)c1=O (centres unmarked) [Compound 98]", "IDH1 R132H (Homo sapiens, UniProt O75874, R132H)", "IDH1 R132H IC50 Fold improvement over 87", 2.8]
]}

// next entry
**Query** Need IDH1 R132H IC50 Fold improvement over 87, item CCc1cccc(CC)c1-n1c(C=C(C)C)c(C(=O)N2CCNCC2)cc(-c2nc(-c3ccc(Cl)cc3)cs2)c1=O [Compound 92]
**Result** 4.8

The origin of these recorded values is paper PMC8968748.
